Target: T1, anti-CD28 Fab (SEQ ID NOs: 202, 203)
T1 construct: biotinylated and captured on neutravidin coated plates in the phage ELISA
T1 sequence (VH, as listed by the source, chain 1 of 2): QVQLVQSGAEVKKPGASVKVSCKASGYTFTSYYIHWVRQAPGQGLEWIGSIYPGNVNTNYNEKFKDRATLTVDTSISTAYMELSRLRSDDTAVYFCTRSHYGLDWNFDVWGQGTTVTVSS
T1 sequence (VL, as listed by the source, chain 2 of 2): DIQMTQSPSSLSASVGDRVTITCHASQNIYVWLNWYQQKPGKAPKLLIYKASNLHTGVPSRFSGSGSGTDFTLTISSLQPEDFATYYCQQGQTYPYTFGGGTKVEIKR
Experiment: phage binding ELISA; biotinylated Fab on neutravidin plate;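 also: clonal phage supernatants added to Fab wells pretreated with CD28 antigen or with blocking buffer only, bound phage read out via HRP-linked anti-M13 antibody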
Measure name: Anti-CD28 Fab (SEQ ID NOs: 202, 203) signal

YCEGHSAEYIFKCL [Phage-354] :: 1.83
YCEGHTSEYMNKCL [Phage-335] :: 1.87
YCEGHSVQYMQKCL [Phage-429] :: 1.71
YCEGHSEEYMSKCL [Phage-304] :: 1.91
YCDGHLKEYMAKCL [Phage-314] :: 1.9
YCEGHLPDYMQKCL [Phage-412] :: 1.73
YCEGHLPAYMQKCL [Phage-377] :: 1.78
YCEGHSPLYMSKCL [Phage-331] :: 1.87
